These entries and their values trace back to the supplement of paper PMC7156485.

- Test system: TDF;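 also: TDF is a line of transformed human dermal fibroblasts of mesenchymal origin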
- ASSAY_DETAILS: H1.0 immunofluorescence intensity relative to DMSO (% of DMSO); higher = stronger H1.0 induction, active = 120 or more
- COND: concentration: 10 µM; 24 h
Below: a set of entries, each annotated with reported H1.0 immunofluorescence intensity.

Before answering, review these 5 worked examples.
# MOLECULE, RECORDED_VALUE
data = [
    ("CCN(CC)CCNC(=O)c1ccc(N)cc1.Cl [Procainamide hydrochloride]", "88.6 (inactive)"),
    ("CC#CCOC(=O)c1c(C)nc2sc3c(c2c1N)CCC(O)C3 (stereo not given)", "99.5 (inactive)"),
    ("CC1(NCC(O)COc2cccc3[nH]ccc23)CCC(C(C)(C)NC(=O)CBr)CC1 (stereo not given) [Pindobind-5HT1A]", "135 (active)"),
    ("C[N+](C)(C)CCOC(=O)CCC(=O)OCC[N+](C)(C)C [Succinylcholine]", "99.9 (inactive)"),
    ("CCCCCCCCCCCCCCCC(=O)O [Hexadecanoic acid]", "104 (inactive)"),
]

[Q] Please list H1.0 immunofluorescence intensity recorded for the molecule O=[N+]([O-])c1cccc2c(Br)[nH]nc12 [3-Bromo-7-nitroindazole]
[A] 103 (inactive)

[Q] Please list H1.0 immunofluorescence intensity recorded for the molecule CN1C2CCCC1CC(NC(=O)c1nn(C)c3ccccc13)C2 (stereo not given) [Granisetron]
[A] 104 (inactive)

[Q] Please list H1.0 immunofluorescence intensity recorded for the molecule COc1c(N2CC3CCCNC3C2)c(F)cc2c(=O)c(C(=O)O)cn(C3CC3)c12.Cl (stereo not given) [Moxifloxacin.HCl]
[A] 96.7 (inactive)

[Q] Please list H1.0 immunofluorescence intensity recorded for the molecule Cn1cnc([N+](=O)[O-])c1Sc1ncnc2nc[nH]c12 [Azathioprine]
[A] 94.9 (inactive)

[Q] Please list H1.0 immunofluorescence intensity recorded for the molecule O=c1c(-c2ccc(O)cc2)coc2cc(O)ccc12 [Daidzein]
[A] 92.4 (inactive)

[Q] Please list H1.0 immunofluorescence intensity recorded for the molecule "COc1ccc2c(c1)c(C1=C(c3c[nH]c4ccccc34)C(=O)NC1=O)cn2CCCN(C)C"
[A] 98.6 (inactive)

[Q] Please list H1.0 immunofluorescence intensity recorded for the molecule NC1CCN(c2nc3c(cc2F)c(=O)c(C(=O)O)cn3-c2ccc(F)cc2F)C1 (stereo not given) [Tosufloxacin]
[A] 105 (inactive)

[Q] Please list H1.0 immunofluorescence intensity recorded for the molecule CCCCCC=CCC=CCC=CCCCCCCC(=O)O [8(Z), 11(Z), 14(Z)-Eicosatrienoic Acid]
[A] 97.9 (inactive)

[Q] Please list H1.0 immunofluorescence intensity recorded for the molecule CC(COc1ccccc1)N(CCCl)Cc1ccccc1.Cl (stereo not given) [Phenoxybenzamine hydrochloride]
[A] 105 (inactive)

[Q] Please list H1.0 immunofluorescence intensity recorded for the molecule CC(C)(C)c1nc2c3cc[nH]c(=O)c3c3cc(F)ccc3c2[nH]1 [JAK Inhibitor I]
[A] 90.3 (inactive)

[Q] Please list H1.0 immunofluorescence intensity recorded for the molecule CC(C)=CCC(O)C1=CC(=O)c2c(O)ccc(O)c2C1=O (stereo not given) [Shikonin]
[A] 119 (inactive)

[Q] Please list H1.0 immunofluorescence intensity recorded for the molecule CCC=CCC=CCC=CCC=CCC=CCCC(=O)OC(COCCCCCCCCCCCCCCCC)COP(=O)([O-])OCC[N+](C)(C)C (stereo not given)
[A] 94.3 (inactive)

[Q] Please list H1.0 immunofluorescence intensity recorded for the molecule CCOC(=O)OC(C)OC1=C(C(=O)Nc2ccccn2)N(C)S(=O)(=O)c2ccccc21 (stereo not given) [Ampiroxicam]
[A] 99.6 (inactive)

[Q] Please list H1.0 immunofluorescence intensity recorded for the molecule COc1ccc(CCN(C)CCCC(C#N)(c2cc(OC)c(OC)c(OC)c2)C(C)C)cc1OC.Cl (racemic)
[A] 89 (inactive)
